# System name: T1, CD96 extracellular region with His tag (CD96-His) (human, UniProt P40200 22-519)
# T1 construct: also called CD96-ECD-His; Bio-CD96-His (biotin-labelled form)
# T1 sequence: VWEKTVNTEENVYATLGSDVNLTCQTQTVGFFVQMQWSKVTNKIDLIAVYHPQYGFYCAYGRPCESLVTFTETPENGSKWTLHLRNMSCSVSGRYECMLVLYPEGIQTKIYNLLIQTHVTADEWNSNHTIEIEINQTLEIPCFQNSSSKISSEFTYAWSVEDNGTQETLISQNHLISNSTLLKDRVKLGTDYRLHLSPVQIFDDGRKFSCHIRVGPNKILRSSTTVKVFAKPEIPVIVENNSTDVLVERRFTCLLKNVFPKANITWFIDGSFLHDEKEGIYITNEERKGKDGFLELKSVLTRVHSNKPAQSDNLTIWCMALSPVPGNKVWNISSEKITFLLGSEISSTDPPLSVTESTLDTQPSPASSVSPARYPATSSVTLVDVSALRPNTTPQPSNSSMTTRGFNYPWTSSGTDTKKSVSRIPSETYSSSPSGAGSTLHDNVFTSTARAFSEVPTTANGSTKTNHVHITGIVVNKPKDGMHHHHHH
# Procedure summary: ELISA, CD96-His coated
Each entry below carries its reported EC50.
Measure name: EC50 (nM)

h1719-006 (antibody, V domains shown, also called M719-006) VH: EVTLKESGPVLVKPTETLTLTCTVSGFSLSSYGVSWVRQPPGKGLEWLGVIWGDGNTNYHSVLISRLTISKDTSKSQVVLTLTNMDPVDTATYYCAKNNYYGSRYGYPMDYWGQGTTVTVSS VL: DIQMTQSPSSVSASVGDRVTITCKATQDVGTAVAWYQQKPGKSPKLLIYWASTRHTGVPERFSGSGSGTDFTLTISSLQPEDFATYFCQQYGSSVLTFGGGTKVEIK; 0.083
ch1718 (antibody, human IgG4 S228P, kappa, V domains shown, also called chimeric antibody corresponding to m1718) VH: EFQLQQSGPELVKPGASVKISCKASAYSITDYNMNWVKQSNGKSLEWIGVINPSYGITDYNQNFKDKATLTVDQSSSTAYMQLNSLTSEDSAVYYCAIQLRLPGYFDVWGTGTTVIVSS VL: DIKMTQSPSSMYASLGERVTITCKASQDINNYLNWFQQKPGKSPKTLIYRANRLVDGVPSRFSGSGSGQDYSLTISSLEYEDMGIYYCLKYDEFPYTFGGGTKVEIKR; 0.084
h1719-003 (antibody, V domains shown, also called M719-003) VH: EVTLKESGPVLVKPTETLTLTCTVSGFSLSSYGVSWVRQPPGKGLEWLGVIWGDGNTNYHSVLISRLTISKDTSKSQVVLTLTNMDPVDTATYYCAKNNYYGSRYGYPMDYWGQGTTVTVSS VL: DIQMTQSPSSVSASVGDRVTITCKATQDVGTAVAWYQQKPGKAPKLLIYWASTRHTGVPSRFSGSGSGTDFTLTISSLQPEDFATYYCQQYGSSVLTFGGGTKVEIK; 0.085
ch1720 (antibody, human IgG4 S228P, kappa, V domains shown, also called chimeric antibody corresponding to m1720) VH: EFQLQQSGPELVKPGASVKISCKASAYSLTDYNMNWVKQSNGKSLEWIGVINPSYGISSYNQKFKGKATLTVDQSSSTAYMHLNSLTSEDSAVYYCARQLRLPGYFDVWGTGTTVTVSS VL: DIKMTQSPSSKNASLGERVTITCKASQDINSYLNWFQQKPGKSPKTLIYRASRLVDGVPSRFSGSGSGQDYSLTISSLEYEDMGIYYCLKYDEFPYTFGGGTKLEIKR; 0.074
h1719-014 (antibody, V domains shown, Only variable regions are tied to this name; also called M719-014) VH: EVTLKESGPVLVKPTETLTLTCTVSGFSLSSYGVSWVRQPPGKGLEWLGVIWGDGNTNYHSVLISRLTISKDTSKSQVVLTLTNMDPVDTATYYCAKNYYYGSRYGYPLDYWGQGTTVTVSS VL: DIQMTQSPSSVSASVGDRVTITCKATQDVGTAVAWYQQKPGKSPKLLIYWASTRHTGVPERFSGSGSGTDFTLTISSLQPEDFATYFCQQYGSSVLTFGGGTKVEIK; 0.091
